Listed here are molecules together with their documented pIC50.
- tgt: human V2 receptor (Homo sapiens)
- Construct: expressed in transfected cells; host or cells: CHO K1 (ATCC) expressing firefly luciferase under a CRE-responsive promoter
- Sequence (P30518 whole entry): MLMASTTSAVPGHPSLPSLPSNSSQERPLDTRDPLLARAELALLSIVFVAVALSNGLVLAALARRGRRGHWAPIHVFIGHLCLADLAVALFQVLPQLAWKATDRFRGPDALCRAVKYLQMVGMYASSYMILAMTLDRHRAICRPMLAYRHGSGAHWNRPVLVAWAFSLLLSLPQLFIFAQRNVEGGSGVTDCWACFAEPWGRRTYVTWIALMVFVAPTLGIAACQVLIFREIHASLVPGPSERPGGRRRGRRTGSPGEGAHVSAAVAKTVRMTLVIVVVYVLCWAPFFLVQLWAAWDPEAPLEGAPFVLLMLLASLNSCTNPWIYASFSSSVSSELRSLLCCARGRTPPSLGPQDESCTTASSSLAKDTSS
- measurement.description: Cellular in vitro assay for determining vasopressin receptor activity, V2 receptor cell line (CHO, CRE-luciferase)
- Assay type: cell-based
- condition: CHO cell line transfected with human V2 receptor; [Arg8]-vasopressin at EC50 concentration, 3 hours; read-out: IC50 hV2
The quantity pIC50 is defined as the negative base-10 logarithm of the molar concentration.

Recorded results for 4 molecules are shown here.
O=C(NC1CCOC1)c1ccccc1-n1cnc(Cn2nc(-c3ccc(Cl)cc3)n(C[C@H](O)C(F)(F)F)c2=O)n1 (mixture of isomers) [Example 208]; 7.02
O=C(Nc1ccncc1-n1cnc(Cn2nc(-c3ccc(Cl)cc3)n(C[C@H](O)C(F)(F)F)c2=O)n1)OCC(F)(F)F [Example 26]; 6.49
Cc1ccnc(NC(=O)c2ccccc2-n2cnc(Cn3nc(-c4ccc(Cl)cc4)n(C[C@H](O)C(F)(F)F)c3=O)n2)n1 [Example 240]; 6.52
CC1(CNC(=O)c2ccccc2-n2cnc(Cn3nc(-c4ccc(Cl)cc4)n(C[C@H](O)C(F)(F)F)c3=O)n2)COC1 [Example 188]; 6.25

Entry CCN(C(=O)c1ccccc1-n1cnc(Cn2nc(-c3ccc(Cl)cc3)n(C[C@H](O)C(F)(F)F)c2=O)n1)C(C)C [Example 349] , pIC50 reported as 6.13

# pIC50 (molecule: CC(=O)Nc1cccnc1-n1cnc(Cn2nc(-c3ccc(Cl)cc3)n(C[C@H](O)C(F)(F)F)c2=O)n1 [Example 38] ) is 6.66

###

- tgt: human V1a receptor (Homo sapiens, UniProt P37288)
- Construct: expressed in transfected cells; host or cells: CHO K1 (ATCC), also stably transfected with a modified aequorin
- Sequence (P37288 whole entry): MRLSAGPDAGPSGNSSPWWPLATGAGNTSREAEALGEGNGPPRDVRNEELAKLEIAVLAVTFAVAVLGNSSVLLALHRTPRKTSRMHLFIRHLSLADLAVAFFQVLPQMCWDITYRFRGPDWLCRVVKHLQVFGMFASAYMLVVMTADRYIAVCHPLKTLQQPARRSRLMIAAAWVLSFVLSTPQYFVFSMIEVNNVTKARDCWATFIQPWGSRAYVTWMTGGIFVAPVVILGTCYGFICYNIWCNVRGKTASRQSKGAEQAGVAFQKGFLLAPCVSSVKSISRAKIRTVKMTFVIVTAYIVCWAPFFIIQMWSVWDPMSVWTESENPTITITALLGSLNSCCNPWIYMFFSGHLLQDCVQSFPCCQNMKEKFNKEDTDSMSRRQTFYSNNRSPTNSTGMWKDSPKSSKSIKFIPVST
- measurement.description: Cellular in vitro assay for determining vasopressin receptor activity, V1a receptor cell line (CHO, aequorin luminescence)
- Type: cell-based
- condition: selectivity ratio IC50 hV2 / IC50 hV1a
ratio IC50 hV2/hV1a of 50 or higher: yes (1). Under 50: no (0).

Field: example entries. Status: answers known.
O=C(Nc1ncccc1-n1cnc(Cn2nc(-c3ccc(Cl)cc3)n(C[C@H](O)C(F)(F)F)c2=O)n1)C1CC1F (stereo partly shown) [Example 85]; yes (1)
CC(C)CN(C)C(=O)c1ccccc1-n1cnc(Cn2nc(-c3ccc(Cl)cc3)n(C[C@H](O)C(F)(F)F)c2=O)n1; yes (1)
CC(C(=O)Nc1ncccc1-n1cnc(Cn2nc(-c3ccc(Cl)cc3)n(C[C@H](O)C(F)(F)F)c2=O)n1)n1ccnc1 (stereo partly shown); yes (1)
O=C(N[C@H]1C[C@H]1F)c1cccc(Cl)c1-n1cnc(Cn2nc(-c3ccc(Cl)cc3)n(C[C@@H](O)C(F)(F)F)c2=O)n1 (racemic); yes (1)
O=C(c1ncccc1-n1cnc(Cn2nc(-c3ccc(Cl)cc3)n(C[C@H](O)C(F)(F)F)c2=O)n1)N1CCS(=O)(=O)CC1; no (0)

Does NC(=O)C1CCCN1C(=O)c1cccc(Cl)c1-n1cnc(Cn2nc(-c3ccc(Cl)cc3)n(C[C@@H](O)C(F)(F)F)c2=O)n1 (mixture of isomers) have a reported ratio IC50 hV2/hV1a of at least 50? yes (1)

Is ratio IC50 hV2/hV1a for O=c1n(Cc2ncn(-c3cccnc3N3CCOCC3)n2)nc(-c2ccc(Cl)cc2)n1C[C@H](O)C(F)(F)F at or above 50? no (0)

Reported ratio IC50 hV2/hV1a at or above 50? O=C(NCC(F)(F)F)c1cccc(Cl)c1-n1cnc(Cn2nc(-c3ccc(Cl)cc3)n(C[C@@H](O)C(F)(F)F)c2=O)n1 no (0)

Item O=C1CN(C(=O)c2nc(Cn3nc(-c4ccc(Cl)cc4)n(C[C@H](O)C(F)(F)F)c3=O)nn2-c2ncccc2C(=O)NC2CC2)CCN1 with ratio IC50 hV2/hV1a of 50 or above? no (0)

Please check the record O=C(NCC(F)(F)F)c1cccc(C(F)(F)F)c1-n1cnc(Cn2nc(-c3ccc(Cl)cc3)n(C[C@H](O)C(F)(F)F)c2=O)n1 and state if its ratio IC50 hV2/hV1a is at or above 50. no (0)

Please check the record CC(C)CNC(=O)c1ccccc1-n1cnc(Cn2nc(-c3ccc(Cl)cc3)n(C[C@H](O)C(F)(F)F)c2=O)n1 and state if its ratio IC50 hV2/hV1a is at or above 50. yes (1)

In plain terms: is recorded ratio IC50 hV2/hV1a at least 50 for CC[C@@H](C)C(=O)Nc1ncccc1-n1cnc(Cn2nc(-c3ccc(Cl)cc3)n(C[C@H](O)C(F)(F)F)c2=O)n1 ? no (0)

# check: ratio IC50 hV2/hV1a of O=C(Nc1cccnc1-n1cnc(Cn2nc(-c3ccc(Cl)cc3)n(C[C@H](O)C(F)(F)F)c2=O)n1)C1CC1 is greater than or equal to 50 yes (1)

For this molecule, is measured ratio IC50 hV2/hV1a 50 or higher? CC1CN(C(=O)c2ncccc2-n2cnc(Cn3nc(-c4ccc(Cl)cc4)n(C[C@H](O)C(F)(F)F)c3=O)n2)CCO1 (mixture of isomers) no (0)

Please tell me: is the molecule CC(C)=CCNC(=O)c1ccccc1-n1cnc(Cn2nc(-c3ccc(Cl)cc3)n(C[C@H](O)C(F)(F)F)c2=O)n1 at or over 50 in terms of ratio IC50 hV2/hV1a? yes (1)

For this molecule, is measured ratio IC50 hV2/hV1a 50 or higher? CC1C=CC(C)N1C(=O)c1ccccc1-n1cnc(Cn2nc(-c3ccc(Cl)cc3)n(C[C@H](O)C(F)(F)F)c2=O)n1 (stereo partly shown) yes (1)
